- System: HOP-62 NSCLC
- measurement description: NCI tumour cell line growth inhibition, 48 h
readout kind: TGI

[
  {
    "compound": "Cc1ccc(S(=O)(=O)/N=C(\\N)N(C)N=O)cc1",
    "readout kind": "TGI",
    "reported value": "> 100 µM"
  },
  {
    "compound": "COc1ccc2c3c(n(Cc4ccccc4)c(=O)c2c1)-c1cc(OC)c(OC)cc1C3C (centres undefined)",
    "readout kind": "TGI",
    "reported value": "> 70 µM"
  },
  {
    "compound": "O=C(O)c1ccc(-c2nc3ccc(Cl)cc3[nH]2)cc1",
    "readout kind": "TGI",
    "reported value": "> 100 µM"
  },
  {
    "compound": "CC(C)(C)CC(C)(C)c1cc2c(O)c(c1)Cc1cc(C(C)(C)CC(C)(C)C)cc(c1O)Cc1cc(C(C)(C)CC(C)(C)C)cc(c1O)Cc1cc(C(C)(C)CC(C)(C)C)cc(c1O)Cc1cc(C(C)(C)CC(C)(C)C)cc(c1O)Cc1cc(C(C)(C)CC(C)(C)C)cc(c1O)C2",
    "readout kind": "TGI",
    "reported value": "> 100 µM"
  },
  {
    "compound": "Cn1cc(C2=C(c3cccnc3)C(=O)NC2=O)c2ccccc21",
    "readout kind": "TGI",
    "reported value": "> 25 µM"
  },
  {
    "compound": "O=P(NC12CC3CC(CC(C3)C1)C2)(N1CC1)N1CC1",
    "readout kind": "TGI",
    "reported value": "> 100 µM"
  },
  {
    "compound": "Cc1nc2ccccc2c(=O)n1NC(=O)c1ccc([N+](=O)[O-])cc1",
    "readout kind": "TGI",
    "reported value": "> 100 µM"
  },
  {
    "compound": "O=[N+]([O-])c1ccc2c(c1)Nc1c3ccccc3nc3cccc-2c13",
    "readout kind": "TGI",
    "reported value": "7.7 µM"
  },
  {
    "compound": "O=C(O)CCC(=O)c1ccc2ccc3cccc4ccc1c2c34",
    "readout kind": "TGI",
    "reported value": "> 100 µM"
  }
]
